subject.of.test: T1, Biotin-huCGRPaSA (human, not fully specified; biotin (position not given))
T1 construct: exact construct ('aSA') not explained; also called Biotin CGRPaSA; full-length (1-37) CGRP
T1 peptide: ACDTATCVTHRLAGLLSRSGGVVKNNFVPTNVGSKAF
experiment.summary: ELISA, transfection supernatant, biotin-CGRP on streptavidin; note: test concentration or dose not given here
Overview of reported OD value across a group of binders:
Kindly provide the numeric value in OD only, without the unit symbol.

Below, 3 binders whose answers are already recorded.
[[record]]
binder = "C69 (antibody, V domains shown, 1B2-HC + 3H10-LC2; chimeric, human constant regions) VH: EVQLQQSGPEVVKPGASVRISCQASGYTFTDYNMHWVKQSHGKSLEWIGYIFPYNGVAVYNRKFRSKATLIIDKSSTTAYMELRSLTSEDSAVYYCAREGLGGYWGQGTTLTVSS VL: DIVLTQSPDSLAVSLGQRATISCKASQNIDYGGYSYMNWYQQKPGQPPKVLIYSVFNLESGIPARFSGSGSGTDFTLTIHPVEEEDAATYYCQQSNEAPYTFGGGTKLEIR"
outcome_measure = "OD value"
measurement_units = "OD"
data_value = 3.07

[[record]]
binder = "C350 (antibody, V domains shown, 3H10-HC + 1F5-LC1; chimeric, human constant regions) VH: EVQLQQSGPELVQPGASVKISCKASGYTFTDYNMHWVKQSHGESLEWIGYIYPYNGHTVYNQKFRNKATMTVDSSSSTAYMDLRSLTSEDSAVYYCAKEGLGGYWGQGTTLTVSS VL: DIVLTQSPASLAVSLGQRATISCKASQNIDFDGYAYMNWYQHKPGQPPRVLIYSVFNLESGIPARFSGSGSGTDFTLNIHPVEEEDAATYYCQQSHEVPYTFGGGTNLEIK"
outcome_measure = "OD value"
measurement_units = "OD"
data_value = 3

[[record]]
binder = "C269 (antibody, V domains shown, 3E5-HC + 3E5-LC; chimeric, human constant regions) VH: EVQLQQSGPELVKPGASVKISCKTSGYTFTDYNMHWVKQSHGKSLEWIGYISPYNGGTAYNQKFKFKSTLTVDTSSSTAYMELRSLTSEDSAVYYCAREGLGGYWGQGTTLTVSS VL: DIVLTQSPASLAVSLGQRATISCKASQNIDYDGYTYLNWYQQKPGQPPKVLIYSIFNLESGIPARFSGSGSGTDFTLNIHPVEEEDAATYYCQQSNEVPYTFGGGTKLEIK"
outcome_measure = "OD value"
measurement_units = "OD"
data_value = 2.91


# binder C131 (antibody, V domains shown, 2B8-HC1 + 3E5-LC; chimeric, human constant regions) VH: EVQLQQSGPELVKPGASVKISCKASGYTFTDYNMHWVKQSHGKSLEWIGNIYPYNGGTVYNQKFNNKATLTVHTSSSTAYMDLRSLTSDDSAVYYCAREGLGGYWGQGTTLTVSS VL: DIVLTQSPASLAVSLGQRATISCKASQNIDYDGYTYLNWYQQKPGQPPKVLIYSIFNLESGIPARFSGSGSGTDFTLNIHPVEEEDAATYYCQQSNEVPYTFGGGTKLEIK ; its OD value = 3.02

# binder C71 (antibody, V domains shown, 1F5-HC + 1A2-LC2; chimeric, human constant regions) VH: EVQLQQSGPELVKPGASVKISCKTSGYTFIDFNMHWVKQSHGKSLEWIGYIYPYNGDVVYNQNFTNKATLTVDSSSSTAYMELRRVTSEDSAIYYCAREGLGGYWGQGTTLTVSS VL: DIVLTQSPASLAVSLGQRATISCKASQNIDYDGYAYLNWYQQKPGQPPKVLIYSVFNLESGIPARFSGSGSGTDFTLNIHPVEEEDAATYYCQQSNEFPYTFGGGTKLEVK ; its OD value = 3.06
